# test-target: T1, Cynomolgus CD3εδ Fc heterodimer (Cy CD3ε Fc + CD3δ Fc-HIS) (cynomolgus, UniProt Q95LI5 22-117; Q95LI8 22-100)
# T1 construct: range 22-117;range 22-100; Made in HEK 293 cells with a heterologous signal peptide; also called Cy CD3εδ-Fc; cyno CD3εδ Fc; not shown: Fc; Fc followed by HIS tag
# T1 sequence (Q95LI5 22-117, stated change not applied, form in doubt, chain 1 of 2): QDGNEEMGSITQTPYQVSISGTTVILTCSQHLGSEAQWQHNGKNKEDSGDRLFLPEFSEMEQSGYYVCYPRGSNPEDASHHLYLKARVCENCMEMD
# T1 sequence (Q95LI8 22-100, stated change not applied, form in doubt, chain 2 of 2): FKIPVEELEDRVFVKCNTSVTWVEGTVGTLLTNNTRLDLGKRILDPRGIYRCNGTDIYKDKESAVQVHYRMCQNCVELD
# assay-explanation: BLI (Octet), Fab monovalent, pH 6.0
Reported pKd is given for each of the following binders.
In plain terms, pKd is the concentration in mol/L turned into minus its base-10 logarithm.

Guide cases for pKd, answers given:
| binder | pKd |
| --- | --- |
| Antibody No. A004 (ADI-26920) Fab (Fab, V domains shown, Fab by papain digestion of the IgG1) VH: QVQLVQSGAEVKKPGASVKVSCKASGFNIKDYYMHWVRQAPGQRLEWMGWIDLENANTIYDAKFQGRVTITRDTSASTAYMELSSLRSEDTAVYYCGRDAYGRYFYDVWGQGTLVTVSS VL: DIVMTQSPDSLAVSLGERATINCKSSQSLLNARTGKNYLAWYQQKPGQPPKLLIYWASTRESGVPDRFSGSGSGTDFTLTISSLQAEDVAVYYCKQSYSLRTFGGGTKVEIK | 7.64 |
| Antibody No. A005 (ADI-26921) Fab (Fab, V domains shown, Fab by papain digestion of the IgG1) VH: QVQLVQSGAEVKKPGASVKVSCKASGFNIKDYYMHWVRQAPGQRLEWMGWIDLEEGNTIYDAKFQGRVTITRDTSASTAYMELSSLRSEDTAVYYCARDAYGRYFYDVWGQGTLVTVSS VL: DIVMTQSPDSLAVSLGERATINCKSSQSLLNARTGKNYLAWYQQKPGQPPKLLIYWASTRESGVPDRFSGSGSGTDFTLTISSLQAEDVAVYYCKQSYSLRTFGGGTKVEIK | 7.35 |
| Antibody No. A001 (ADI-26906) Fab (Fab, V domains shown, Fab by papain digestion of the IgG1) VH: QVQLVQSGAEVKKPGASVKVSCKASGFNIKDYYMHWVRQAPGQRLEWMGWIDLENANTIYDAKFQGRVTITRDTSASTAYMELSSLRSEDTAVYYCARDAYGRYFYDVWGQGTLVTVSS VL: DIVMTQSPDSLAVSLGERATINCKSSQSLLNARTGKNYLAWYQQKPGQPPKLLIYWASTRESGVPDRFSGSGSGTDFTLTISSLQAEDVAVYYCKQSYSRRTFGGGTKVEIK | 8.23 |

Challenge: pKd lookup needed for Antibody No. V017 (ADI-76360) Fab (Fab, V domains shown, Fab by papain digestion of the IgG1) VH: QVQLVQSGAEVKKPGASVKVSCKASGFNIKDYYMHWVRQAPGQRLEWMGWIDLENADTIYDAKFQGRVTITRDTSASTAYMELSSLRSEDTAVYYCGRDAYGRYFYDVWGQGTLVTVSS VL: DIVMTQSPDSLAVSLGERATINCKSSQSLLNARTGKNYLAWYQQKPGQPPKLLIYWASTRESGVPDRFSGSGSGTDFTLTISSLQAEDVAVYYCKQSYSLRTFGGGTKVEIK , thanks.
Response given: 7.47
